Target: T1, GFP-RIα D/D (bovine, UniProt P00514 1-109)
T1 construct: range 1-109; His tag cleaved with thrombin; also called dimerization/docking (D/D) domain of bovine RIα (residues 1-109) fused to GFP; not shown: green fluorescent protein (GFP)
T1 sequence (P00514 1-109): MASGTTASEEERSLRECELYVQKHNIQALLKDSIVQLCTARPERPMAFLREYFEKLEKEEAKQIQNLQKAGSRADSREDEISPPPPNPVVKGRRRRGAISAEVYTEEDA
Experiment: SPOT peptide array, anti-GFP detection
Ends that are not written are not given here.
readout.label: binding result

binder: VQGNTDEAQEELAWKIAKMIVSDIMQ (also: cellulose-bound) [SEQ ID NO:83 peptide]
data.value: binds

binder: VQGNTDEAQEELAW (also: cellulose-bound) [SEQ ID NO:95 peptide]
data.value: no binding

binder: VQGNTDEAQEELAWKIAKM (also: cellulose-bound) [SEQ ID NO:90 peptide]
data.value: no binding

binder: VQGNTDEAQEEL (also: cellulose-bound) [SEQ ID NO:97 peptide]
data.value: no binding

binder: VQGNTDEAQEELAWKIAKMIV (also: cellulose-bound) [SEQ ID NO:88 peptide]
data.value: no binding

binder: VQGNTDEAQEELAWKI (also: cellulose-bound) [SEQ ID NO:93 peptide]
data.value: no binding
